test: Cmax in C57/BL6 mouse plasma at 13.9 mg/kg, iv administered via bolus by LC-MS/MS analysis; assay type: ADME, organism-based; parameters: dose 13.9 mg/kg, route iv
Square brackets hold non-standard residues; d marks the D form. Peptide text beside a SMILES is read from it. dNle = CCCC[C@@H](N)C(=O)O
Can you tell me Cmax for the items I'm about to list?
The reply should be a number in nM, with the unit left off.

Query: Quick one: Cmax of CCCC[C@@H](NC(=O)[C@@H](Cc1ccc(F)cc1)NC(=O)[C@H](N)Cc1ccccc1)C(=O)N[C@H](CCCNC(=N)N)C(N)=O ?
Reply: 109

Query: Quick one: Cmax of CCCC[C@@H](NC(=O)[C@@H](Cc1ccccc1)NC(=O)[C@H](N)Cc1ccccc1)C(=O)N[C@H](CCCNC(=N)N)C(N)=O (H-[dF][dF][dNle][dR]-NH2) ?
Reply: 93

----------
Can you tell me Tmax for the items I'm about to list?
assay: Tmax in C57/BL6 mouse plasma at 13.9 mg/kg, iv administered via bolus by LC-MS/MS analysis; format: ADME, organism-based
Square brackets hold non-standard residues; d marks the D form. Peptide text beside a SMILES is read from it. dNle = CCCC[C@@H](N)C(=O)O
The reply should be a number in min, with the unit left off.

Query: Quick one: Tmax of CCCC[C@@H](NC(=O)[C@@H](Cc1ccccc1)NC(=O)[C@H](N)Cc1ccccc1)C(=O)N[C@H](CCCNC(=N)N)C(N)=O (H-[dF][dF][dNle][dR]-NH2) ?
Reply: 5

Query: Quick one: Tmax of CCCC[C@@H](NC(=O)[C@@H](Cc1ccc(F)cc1)NC(=O)[C@H](N)Cc1ccccc1)C(=O)N[C@H](CCCNC(=N)N)C(N)=O ?
Reply: 15

----------
molecular target: Kappa-type opioid receptor (Cavia porcellus); assay: Agonist activity at KOR in guinea pig brain membranes assessed as stimulation of [35S]GTPgammaS binding measured after 1 hr by liquid scintillation counting analysis
Sequence (P41144 whole entry): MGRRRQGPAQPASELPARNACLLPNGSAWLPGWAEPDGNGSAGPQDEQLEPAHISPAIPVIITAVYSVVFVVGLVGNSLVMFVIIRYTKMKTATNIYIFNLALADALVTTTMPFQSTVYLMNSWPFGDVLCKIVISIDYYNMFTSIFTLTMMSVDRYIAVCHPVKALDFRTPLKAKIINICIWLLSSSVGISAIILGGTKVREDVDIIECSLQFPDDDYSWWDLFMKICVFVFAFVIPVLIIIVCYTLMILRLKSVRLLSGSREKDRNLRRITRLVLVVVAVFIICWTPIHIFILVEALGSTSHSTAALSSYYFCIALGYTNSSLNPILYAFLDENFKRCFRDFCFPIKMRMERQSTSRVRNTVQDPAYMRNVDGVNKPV
Square brackets hold non-standard residues; d marks the D form. Peptide text beside a SMILES is read from it. dNle = CCCC[C@@H](N)C(=O)O
Can you tell me pEC50 for the items I'm about to list?
Conceptually, pEC50 converts a concentration in mol/L into minus its log10.

Query: Quick one: pEC50 of CCCC[C@@H](NC(=O)[C@@H](Cc1ccc(F)cc1)NC(=O)[C@H](N)Cc1ccccc1)C(=O)N[C@H](CCCNC(=N)N)C(N)=O ?
Reply: 6.02

Query: Quick one: pEC50 of CCCC[C@@H](NC(=O)[C@@H](Cc1ccccc1)NC(=O)[C@H](N)Cc1ccc(O)cc1)C(=O)N[C@H](CCCNC(=N)N)C(N)=O ?
Reply: 5.02

Query: Quick one: pEC50 of CCCC[C@@H](NC(=O)[C@@H](Cc1ccccc1)NC(=O)[C@H](N)Cc1ccccc1)C(=O)N[C@H](CCCNC(=N)N)C(N)=O (H-[dF][dF][dNle][dR]-NH2) ?
Reply: 7.58

Query: Quick one: pEC50 of CCCC[C@@H](NC(=O)[C@@H](Cc1ccccc1)NC(=O)[C@H](N)Cc1ccccc1F)C(=O)N[C@H](CCCNC(=N)N)C(N)=O ?
Reply: 5.87

Query: Quick one: pEC50 of CCCC[C@@H](NC(=O)[C@@H](Cc1cccc(F)c1)NC(=O)[C@H](N)Cc1ccccc1)C(=O)N[C@H](CCCNC(=N)N)C(N)=O ?
Reply: 5.73

Query: Quick one: pEC50 of CCCC[C@@H](NC(=O)[C@@H](Cc1ccccc1)NC(=O)[C@H](N)Cc1c[nH]c2ccccc12)C(=O)N[C@H](CCCNC(=N)N)C(N)=O ?
Reply: 8.29

Query: Quick one: pEC50 of CCCC[C@@H](NC(=O)[C@@H](Cc1ccccc1)NC(=O)[C@H](N)Cc1cccc(F)c1)C(=O)N[C@H](CCCNC(=N)N)C(N)=O ?
Reply: 7.65

Query: Quick one: pEC50 of CCCC[C@@H](NC(=O)[C@H]1Cc2ccccc2CN1C(=O)[C@H](N)Cc1ccccc1)C(=O)N[C@H](CCCNC(=N)N)C(N)=O ?
Reply: 8.10
